system: 439559-082-T-J2-PDC spheroid viability; experiment: Anticancer human tumor 439559-082-T-J2-PDC patient-derived colon adenocarcinoma cell line growth inhibition [POLQ]; conditions: second compound 0.1 µM; first compound 0.0316 µM; stronger effect = lower value; spheroids with HUVEC and MSC
viability, T/C reference
Param answer (str): number followed by unit.

CC1COCCN1c1cc(C2(S(C)(=N)=O)CC2)nc(-c2ccnc3[nH]ccc23)n1 (stereo not given) + Cc1cccc(N(C)C(=O)C2C(O)CCN2c2nc(C)cc(C(F)(F)F)c2C#N)c1
98.6%

Problem: GET /values?readout=viability, T/C&item= C=CCn1c(=O)c2cnc(Nc3ccc(N4CCN(C)CC4)cc3)nc2n1-c1cccc(C(C)(C)O)n1 + Cc1cccc(N(C)C(=O)C2C(O)CCN2c2nc(C)cc(C(F)(F)F)c2C#N)c1
Result: 107%

Problem: Which measured viability, T/C value corresponds to COc1cccc2c1C(=O)c1c(O)c3c(c(O)c1C2=O)CC(O)(C(=O)CO)CC3OC1CC(N)C(O)C(C)O1 (stereo not given) + Cc1cccc(N(C)C(=O)C2C(O)CCN2c2nc(C)cc(C(F)(F)F)c2C#N)c1 ?
Result: 96.2%

Problem: Look up viability, T/C for this compound: C=CC(=O)N1CCN(c2nc(=O)n(-c3c(C)ccnc3C(C)C)c3nc(-c4c(O)cccc4F)c(F)cc23)C(C)C1 (stereo not given) + COC1C(OC(N)=O)C(O)C(Oc2ccc3c(O)c(NC(=O)c4ccc(O)c(CC=C(C)C)c4)c(=O)oc3c2C)OC1(C)C
Result: 96.7%

Problem: Bench note: what viability, T/C did CC(C)n1c(=O)n(C)c2cnc3cc(F)c(-c4ccc(OCCCN5CCCCC5)nc4)cc3c21 + Cc1cccc(N(C)C(=O)C2C(O)CCN2c2nc(C)cc(C(F)(F)F)c2C#N)c1 show?
Result: 115%

* * *

# viability, T/C per entry
tested on: 439559-082-T-J2-PDC spheroid viability; experiment: Anticancer human tumor 439559-082-T-J2-PDC cell line growth inhibition [POLQ]; conditions: second compound 10 µM; first compound 0.1 µM; stronger effect = lower value; spheroids with HUVEC and MSC;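 note: spheroids exposed to compounds for seven days before readout; 100% = DMSO vehicle control viability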
I only need the number, in %, no unit after it.

Problem: If you can, please state the reported viability, T/C value of COc1cc2cc(C(=O)CCC(=O)O)sc2cc1OC + Nc1ccc(C#CCN(C(=O)Cc2ncc(C(F)(F)F)cc2C(F)(F)F)c2ccc(F)cc2)nn1 .
Result: 101

Problem: I'd like to know its viability, T/C. The molecule in question is CC1COCCN1c1cc(C2(S(C)(=N)=O)CC2)nc(-c2ccnc3[nH]ccc23)n1 (stereo unspecified) + COC1C(OC(N)=O)C(O)C(Oc2ccc3c(O)c(NC(=O)c4ccc(O)c(CC=C(C)C)c4)c(=O)oc3c2C)OC1(C)C
Result: 97.4

Problem: Which viability, T/C is listed for Nc1ccn(C2OC(CO)C(O)C2(F)F)c(=O)n1 (stereo unspecified) + Cc1cccc(N(C)C(=O)C2C(O)CCN2c2nc(C)cc(C(F)(F)F)c2C#N)c1 ?
Result: 70.6

Problem: Data request, read-out viability, T/C, for Cn1ncnc1[C@H]1c2n[nH]c(=O)c3cc(F)cc(c23)N[C@@H]1c1ccc(F)cc1 + Cc1cccc(N(C)C(=O)C2C(O)CCN2c2nc(C)cc(C(F)(F)F)c2C#N)c1
Result: 85.2

Problem: Which viability, T/C reading was recorded for the molecule CCc1cc2c(N3CCc4c(cc(Cn5ccnc5)cc4-c4cn(C)nc4C(F)(F)F)C3=O)cc(C)nc2c(OC)n1 + Cc1cccc(N(C)C(=O)C2C(O)CCN2c2nc(C)cc(C(F)(F)F)c2C#N)c1 ?
Result: 111

Problem: Would you kindly share the measured viability, T/C for CNCc1ccc(-c2[nH]c3cc(F)cc4c3c2CCNC4=O)cc1 + COC1C(OC(N)=O)C(O)C(Oc2ccc3c(O)c(NC(=O)c4ccc(O)c(CC=C(C)C)c4)c(=O)oc3c2C)OC1(C)C ?
Result: 93.7

Problem: Data request, read-out viability, T/C, for C=CC(=O)N1CCN(c2nc(=O)n(-c3c(C)ccnc3C(C)C)c3nc(-c4c(O)cccc4F)c(F)cc23)C(C)C1 (stereo unspecified) + Cc1cccc(N(C)C(=O)C2C(O)CCN2c2nc(C)cc(C(F)(F)F)c2C#N)c1
Result: 93.8

Problem: Need viability, T/C, item CC1COCCN1c1cc(C2(S(C)(=N)=O)CC2)nc(-c2ccnc3[nH]ccc23)n1 (stereo unspecified) + Nc1ccc(C#CCN(C(=O)Cc2ncc(C(F)(F)F)cc2C(F)(F)F)c2ccc(F)cc2)nn1
Result: 101

Problem: What does the record list as viability, T/C for CC[C@@]1(O)C(=O)OCc2c1cc1n(c2=O)Cc2cc3c(CN(C)C)c(O)ccc3nc2-1 + Nc1ccc(C#CCN(C(=O)Cc2ncc(C(F)(F)F)cc2C(F)(F)F)c2ccc(F)cc2)nn1 ?
Result: 75.9

Problem: Consider the molecule COc1ccc([C@@H](O)c2cc(-c3ncnc4cc(N5CCOCC5)ccc34)c(F)cc2Cl)nn1 + Cc1cccc(N(C)C(=O)C2C(O)CCN2c2nc(C)cc(C(F)(F)F)c2C#N)c1 and give its measured viability, T/C.
Result: 94.7

Problem: Suppose we examine the molecule COc1cccc(OCCCN)c1-c1cc(Nc2cnc(C#N)cn2)n[nH]1 + COC1C(OC(N)=O)C(O)C(Oc2ccc3c(O)c(NC(=O)c4ccc(O)c(CC=C(C)C)c4)c(=O)oc3c2C)OC1(C)C ; what viability, T/C value has been reported?
Result: 56.4

Problem: Which viability, T/C value is on record for O=C(c1cc(Cc2n[nH]c(=O)c3ccccc23)ccc1F)N1CCN(C(=O)C2CC2)CC1 + COC1C(OC(N)=O)C(O)C(Oc2ccc3c(O)c(NC(=O)c4ccc(O)c(CC=C(C)C)c4)c(=O)oc3c2C)OC1(C)C ?
Result: 99.3

Problem: Using the record for COc1cccc(OCCCN)c1-c1cc(Nc2cnc(C#N)cn2)n[nH]1 + Nc1ccc(C#CCN(C(=O)Cc2ncc(C(F)(F)F)cc2C(F)(F)F)c2ccc(F)cc2)nn1 , report its viability, T/C.
Result: 42.4

Problem: Please look up its viability, T/C: COc1cccc(OCCCN)c1-c1cc(Nc2cnc(C#N)cn2)n[nH]1 + Cc1cccc(N(C)C(=O)C2C(O)CCN2c2nc(C)cc(C(F)(F)F)c2C#N)c1
Result: 63.2

Problem: May I ask what viability, T/C has been recorded for COc1cccc2c1C(=O)c1c(O)c3c(c(O)c1C2=O)CC(O)(C(=O)CO)CC3OC1CC(N)C(O)C(C)O1 (stereo unspecified) + COC1C(OC(N)=O)C(O)C(Oc2ccc3c(O)c(NC(=O)c4ccc(O)c(CC=C(C)C)c4)c(=O)oc3c2C)OC1(C)C ?
Result: 105

Problem: Given the molecule COc1cccc2c1C(=O)c1c(O)c3c(c(O)c1C2=O)CC(O)(C(=O)CO)CC3OC1CC(N)C(O)C(C)O1 (stereo unspecified) + Nc1ccc(C#CCN(C(=O)Cc2ncc(C(F)(F)F)cc2C(F)(F)F)c2ccc(F)cc2)nn1 , what is its reported viability, T/C?
Result: 74.2

Problem: Returns the measured viability, T/C for the input molecule. Input: CCCS(=O)(=O)Nc1ccc(F)c(C(=O)c2c[nH]c3ncc(-c4ccc(Cl)cc4)cc23)c1F + Nc1ccc(C#CCN(C(=O)Cc2ncc(C(F)(F)F)cc2C(F)(F)F)c2ccc(F)cc2)nn1
Result: 69.3

Problem: // returns reported viability, T/C for input O=c1[nH]cc(F)c(=O)[nH]1 + Cc1cccc(N(C)C(=O)C2C(O)CCN2c2nc(C)cc(C(F)(F)F)c2C#N)c1
Result: 83.3

Problem: Form field: reported viability, T/C of O=C(c1cc(Cc2n[nH]c(=O)c3ccccc23)ccc1F)N1CCN(C(=O)C2CC2)CC1 + Nc1ccc(C#CCN(C(=O)Cc2ncc(C(F)(F)F)cc2C(F)(F)F)c2ccc(F)cc2)nn1
Result: 87.9

Problem: Which viability, T/C reading was recorded for the molecule C=CCn1c(=O)c2cnc(Nc3ccc(N4CCN(C)CC4)cc3)nc2n1-c1cccc(C(C)(C)O)n1 + Cc1cccc(N(C)C(=O)C2C(O)CCN2c2nc(C)cc(C(F)(F)F)c2C#N)c1 ?
Result: 97.8

Problem: Bench note: what viability, T/C did CCc1c2c(nc3ccc(O)cc13)-c1cc3c(c(=O)n1C2)COC(=O)[C@]3(O)CC + Nc1ccc(C#CCN(C(=O)Cc2ncc(C(F)(F)F)cc2C(F)(F)F)c2ccc(F)cc2)nn1 show?
Result: 73.9

* * *

# viability, T/C per entry
test system: 439559-082-T-J2-PDC spheroid viability; assay: Anticancer human tumor 439559-082-T-J2-PDC cell line growth inhibition [POLQ]; conditions: second compound 3.16 µM; first compound 1 µM; stronger effect = lower value; spheroids with HUVEC and MSC;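 note: spheroids exposed to compounds for seven days before readout; 100% = DMSO vehicle control viability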
Express it in %; write the number only.

These recorded examples may help you get a feel for the data.
O=c1[nH]cc(F)c(=O)[nH]1 + Nc1ccc(C#CCN(C(=O)Cc2ncc(C(F)(F)F)cc2C(F)(F)F)c2ccc(F)cc2)nn1
85.5
O=C(Nc1ccc(O)c(NS(=O)(=O)c2ccc(F)cc2)c1)c1ccc(-c2ccccc2)cc1 + Cc1cccc(N(C)C(=O)C2C(O)CCN2c2nc(C)cc(C(F)(F)F)c2C#N)c1
104
CCc1cc2c(N3CCc4c(cc(Cn5ccnc5)cc4-c4cn(C)nc4C(F)(F)F)C3=O)cc(C)nc2c(OC)n1 + Nc1ccc(C#CCN(C(=O)Cc2ncc(C(F)(F)F)cc2C(F)(F)F)c2ccc(F)cc2)nn1
86.3
C=CCn1c(=O)c2cnc(Nc3ccc(N4CCN(C)CC4)cc3)nc2n1-c1cccc(C(C)(C)O)n1 + COC1C(OC(N)=O)C(O)C(Oc2ccc3c(O)c(NC(=O)c4ccc(O)c(CC=C(C)C)c4)c(=O)oc3c2C)OC1(C)C
85.6

// below: viability, T/C requested for another molecule
Problem: Which viability, T/C reading was recorded for the molecule COc1cc(C2c3cc4c(cc3C(OC3OC5COC(C)OC5C(O)C3O)C3COC(=O)C23)OCO4)cc(OC)c1O (stereo not given) + Cc1cccc(N(C)C(=O)C2C(O)CCN2c2nc(C)cc(C(F)(F)F)c2C#N)c1 ?
Result: 83.3
